biological target: HIV-1 Env of pseudovirus isolate MGRM-G-019 (subtype G) (HIV-1); experiment: cell-based or functional assay
Below, each of the binders is paired with its reported IC50 value.
Answer format: numeric, µg/mL implied, no suffix.

Answered cases to consult:
Binder	IC50 (µg/mL)
PGT-136 (antibody, V domains shown) VH: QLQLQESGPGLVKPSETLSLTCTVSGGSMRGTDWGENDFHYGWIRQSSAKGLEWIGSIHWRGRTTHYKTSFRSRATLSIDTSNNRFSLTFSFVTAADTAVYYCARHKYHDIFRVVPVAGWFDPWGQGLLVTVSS VL: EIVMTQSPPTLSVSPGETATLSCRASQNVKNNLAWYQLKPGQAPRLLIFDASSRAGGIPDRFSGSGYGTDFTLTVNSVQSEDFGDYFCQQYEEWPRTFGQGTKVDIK	44.3
PGT-128 (antibody, V domains shown) VH: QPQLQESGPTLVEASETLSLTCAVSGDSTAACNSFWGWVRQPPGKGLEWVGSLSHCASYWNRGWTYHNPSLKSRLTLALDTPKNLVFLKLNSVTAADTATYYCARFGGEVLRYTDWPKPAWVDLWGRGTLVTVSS VL: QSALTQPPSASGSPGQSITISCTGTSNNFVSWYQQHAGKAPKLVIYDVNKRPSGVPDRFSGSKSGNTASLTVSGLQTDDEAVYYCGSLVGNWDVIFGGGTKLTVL	0.01

Moving on to the next binder.
PGT-137 (antibody, V domains shown) VH: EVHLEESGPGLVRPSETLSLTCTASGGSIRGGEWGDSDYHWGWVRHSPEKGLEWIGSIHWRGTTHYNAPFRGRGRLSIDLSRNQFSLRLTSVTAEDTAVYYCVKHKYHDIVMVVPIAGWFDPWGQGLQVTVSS VL: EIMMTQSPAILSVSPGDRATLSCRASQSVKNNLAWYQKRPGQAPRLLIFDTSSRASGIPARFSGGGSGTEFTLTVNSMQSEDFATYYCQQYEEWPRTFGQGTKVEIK has a reported IC50 of 0.126
